IC50 for assorted compounds
ASSAYED TARGET: PDE4Bcat (Homo sapiens)
Sequence (Q07343 330-659 limits assumed): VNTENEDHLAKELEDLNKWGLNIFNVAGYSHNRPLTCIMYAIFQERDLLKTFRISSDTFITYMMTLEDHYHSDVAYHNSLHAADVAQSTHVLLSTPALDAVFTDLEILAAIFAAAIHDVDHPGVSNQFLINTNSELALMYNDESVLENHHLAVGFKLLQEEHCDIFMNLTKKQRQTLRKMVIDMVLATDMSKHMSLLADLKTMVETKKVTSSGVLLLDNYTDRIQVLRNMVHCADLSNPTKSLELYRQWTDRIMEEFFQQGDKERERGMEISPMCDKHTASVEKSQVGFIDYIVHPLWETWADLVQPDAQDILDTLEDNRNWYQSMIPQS
PROTOCOL DETAILS: Phosphodiesterase inhibitory activity, recombinant PDE4Bcat, [3H]cAMP
CONDITION: 30° C. 20 minutes, read-out: IC50 (μmol/L) PDE4

Worked examples follow.
- COMPOUND: "COc1ccc(C2=NN(CCCCOc3ccc(C4=NNC(=O)C4(C)C)c(F)c3F)C(=O)C2(C)C)c2cc(C(F)(F)F)oc12"
  IC50: "< 0.01 µmol/L"
- COMPOUND: "CCc1ccc2c(C3=NN(CCCCOc4ccc(C5=NNC(=O)CC5C)cc4F)C(=O)C3(C)C)ccc(OC)c2n1 (single isomer, unassigned; (+)) [Example 206]"
  IC50: "0.01 to 0.1 µmol/L"
- COMPOUND: "CCc1ccc2c(C3=NN(CCCCOc4ccc(C5=NNC(=O)C5(C)C)cc4)C(=O)C3(C)C)ccc(OC)c2n1"
  IC50: "0.01 to 0.1 µmol/L"
- COMPOUND: "CCc1cc2c(C3=NN(CCCCOc4ccc(C5=NNC(=O)CC5C)c(F)c4F)C(=O)C3(C)C)ccc(OC)n2c1 (stereo not shown)"
  IC50: "0.1 to 1 µmol/L"
- COMPOUND: "COc1ccc(C2=NN(CCCCOc3ccc(C4=NNC(=O)CC4C)c(F)c3F)C(=O)C2(C)C)c2cccnc12 (stereo not shown)"
  IC50: "0.01 to 0.1 µmol/L"

Request: // fetch IC50 given entry `COc1ccc(C2=NN(CCCCOc3ccc(C4=NNC(=O)CC4)c(F)c3F)C(=O)C2(C)C)n2cc(C(F)(F)F)nc12`
Response: < 0.01 µmol/L

Request: Using known records, supply IC50 for `COc1ccc(C2=NN(CCCCOc3ccc(C4=NNC(=O)C4(C)C)c(F)c3F)C(=O)C2(C)C)c2sc(C(F)(F)F)nc12`
Response: < 0.01 µmol/L

Request: Return reported IC50. Input compound: CCc1ccc2c(C3=NN(CCCCOc4ccc(C5=NNC(=O)CC5C)c(F)c4F)C(=O)C3(C)C)ccc(OC)c2n1 (single isomer, unassigned; (-)) [Example 211]
Response: 0.01 to 0.1 µmol/L

Request: Tell me its IC50 given CCc1ccc2c(C3=NN(CCOc4ccc(C5=NNC(=O)CC5C)c(F)c4F)C(=O)C3(C)C)ccc(OC)c2n1 (stereo not shown) as the entry.
Response: 0.01 to 0.1 µmol/L

Request: Output measured IC50 for this item: `CCc1ccc2c(C3=NN(CCCCOc4ccc(C5=NNC(=O)CC5)cc4OC)C(=O)C3(C)C)ccc(OC)c2n1`
Response: 0.1 to 1 µmol/L

Request: Input COc1ccc(C2=NN(CCCCOc3ccc(C4=NNC(=O)CC4C)c(F)c3F)C(=O)C2(C)C)c2nc(C(F)(F)F)nn12 (stereo not shown) , output reported IC50.
Response: 0.01 to 0.1 µmol/L

Request: Fill in reported IC50 for this entry: `CCc1ccc2c(C3=NN(CCCCOc4ccc(C5=NNC(=O)CC5)cc4)C(=O)C3(C)C)ccc(OC)c2n1`
Response: 0.01 to 0.1 µmol/L

Request: Return IC50 (reported value) for this compound: `CCc1ccc2c(C3=NN(CCCCOc4ccc(C5=NNC(=O)CC5)cc4F)C(=O)C3(C)C)ccc(OC)c2n1`
Response: < 0.01 µmol/L
